System: human colon adenocarcinoma lines, including Colo205 and Colo320
Test: MTT assay, colon adenocarcinoma lines
Assay type: cell-based
Conditions: text summary over Colo205 and Colo320, read-out: IC50 against colon adenocarcinoma cancers / malignant cell lines
IC50 reference

- C=C1C(=O)O[C@H]2[C@H]1[C@@H](OC(C)=O)CC(=C)[C@@H]1C[C@H](OC(C)=O)[C@@H](C)[C@H]21 [Compound 13]: ~8 µM

Kindly review the next compound as well.
Given the compound C=C1C(=O)O[C@H]2[C@H]1[C@@H](OC(C)=O)CC(=C)[C@@H]1CC(=O)[C@@H](C)[C@H]21 [Compound 2] , what is its reported IC50?
~9 µM
